Target: fMet-Leu-Phe receptor (Homo sapiens, UniProt P21462)
Sequence (P21462 whole entry): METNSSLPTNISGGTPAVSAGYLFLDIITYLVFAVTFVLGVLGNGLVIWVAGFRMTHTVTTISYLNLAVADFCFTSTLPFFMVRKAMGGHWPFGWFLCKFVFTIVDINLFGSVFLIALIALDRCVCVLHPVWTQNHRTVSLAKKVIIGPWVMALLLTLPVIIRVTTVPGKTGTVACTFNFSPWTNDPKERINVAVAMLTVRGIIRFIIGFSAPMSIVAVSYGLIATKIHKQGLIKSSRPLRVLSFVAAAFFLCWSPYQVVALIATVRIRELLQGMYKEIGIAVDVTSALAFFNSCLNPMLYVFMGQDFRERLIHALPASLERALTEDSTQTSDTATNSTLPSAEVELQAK
Assay: Antagonistic activity was determined by measuring the ability to inhibit superoxide production (stimulated by fMLF) using human neutrophils
Type: functional
measured metric: log10 of IC50 (log10 of the value in nM)
Field: value | Transform: log10 | Quantity: IC50 | Unit: nM

Examples with their reported log10 of IC50 follow.
CC(C)C[C@@H](NC(=O)[C@H](Cc1ccccc1)NC(=O)[C@@H](CC(C)C)NC(=O)[C@H](Cc1ccccc1)NC(=O)NC12CC3CC(CC(C3)C1)C2)C(=O)N[C@@H](Cc1ccccc1)C(=O)O :: 2.48
CSCC[C@H](NC(=O)NCc1ccccc1)C(=O)N[C@@H](CC(C)C)C(=O)N[C@@H](Cc1ccccc1)C(=O)O :: 2.78
CSCC[C@H](NC(=O)NC(C)C)C(=O)N[C@@H](CC(C)C)C(=O)N[C@@H](Cc1ccccc1)C(=O)O :: 3.70
CCCCNC(=O)N[C@@H](Cc1ccccc1)C(=O)N[C@H](CC(C)C)C(=O)N[C@@H](Cc1ccccc1)C(=O)N[C@H](CC(C)C)C(=O)N[C@@H](Cc1ccccc1)C(=O)O :: 2.78
Cc1cccc(NC(=O)N[C@@H](Cc2ccccc2)C(=O)N[C@H](CC(C)C)C(=O)N[C@@H](Cc2ccccc2)C(=O)N[C@H](CC(C)C)C(=O)N[C@@H](Cc2ccccc2)C(=O)O)c1 :: 1.30
CCNC(=O)N[C@@H](CCSC)C(=O)N[C@@H](CC(C)C)C(=O)N[C@@H](Cc1ccccc1)C(=O)O :: 3.48
CC(C)C[C@@H](NC(=O)[C@H](Cc1ccccc1)NC(=O)[C@@H](CC(C)C)NC(=O)[C@H](Cc1ccccc1)NC(=O)Nc1ccccc1)C(=O)N[C@@H](Cc1ccccc1)C(=O)O :: 2.70
CSCC[C@H](NC(=O)NC12CC3CC(CC(C3)C1)C2)C(=O)N[C@@H](CC(C)C)C(=O)N[C@@H](Cc1ccccc1)C(=O)O :: 3.30
CC(C)C[C@@H](NC(=O)[C@H](Cc1ccccc1)NC(=O)[C@@H](CC(C)C)NC(=O)[C@H](Cc1ccccc1)NC(=O)NC(C)C)C(=O)N[C@@H](Cc1ccccc1)C(=O)O :: 2.70
CNC(=O)N[C@@H](CCSC)C(=O)N[C@@H](CC(C)C)C(=O)N[C@@H](Cc1ccccc1)C(=O)O :: 3.30

Identify log10 of IC50 associated with the molecule CSCC[C@H](NC(=O)Nc1cccc(C)c1)C(=O)N[C@@H](CC(C)C)C(=O)N[C@@H](Cc1ccccc1)C(=O)O
3.20

Identify log10 of IC50 associated with the molecule CSCC[C@H](NC(=O)NCC(C)C)C(=O)N[C@@H](CC(C)C)C(=O)N[C@@H](Cc1ccccc1)C(=O)O
3.60

Identify log10 of IC50 associated with the molecule CC(C)C[C@@H](NC(=O)[C@H](Cc1ccccc1)NC(=O)[C@@H](CC(C)C)NC(=O)[C@H](Cc1ccccc1)NC(N)=O)C(=O)N[C@@H](Cc1ccccc1)C(=O)O
2.00

Identify log10 of IC50 associated with the molecule CCCNC(=O)N[C@@H](CCSC)C(=O)N[C@@H](CC(C)C)C(=O)N[C@@H](Cc1ccccc1)C(=O)O
3.48

Identify log10 of IC50 associated with the molecule CSCC[C@H](NC(=O)NC(C)(C)C)C(=O)N[C@@H](CC(C)C)C(=O)N[C@@H](Cc1ccccc1)C(=O)O
3.30
